The reported measurements were obtained from PubChem BioAssay.

composite z-score values for the compounds below.
System: Human papillomavirus type 1a E7 protein (residues 1-88)
test.summary: HPV1a E7 small-molecule binders, primary screen, biochemical, small-molecule microarray, residues 1-88, 635 nm (AID 1129)
settings: small-molecule microarray binding, fluorescence 635 nm; higher = more signal
Keep the answer to the number alone.

Prompt: Give the measured composite z-score of O=C(C1N=C(c2ccc(OCCCO)cc2)N(c2ccccc2)O1)N1CCCCC1 (stereo not given) .
Response: 1.25

Prompt: Give the measured composite z-score of `CC(C)[Si]1(C(C)C)OCc2cc(-c3ccc(-c4ccc(Cl)c(Cl)c4)o3)nc(-c3ccccc3)c21` .
Response: -1.65

Prompt: Give the measured composite z-score of `CCCCCCc1nc(Cc2cc(OC)c(OC)c(OC)c2)cc2c1[Si](C(C)C)(C(C)C)OC2` .
Response: -0.517

Prompt: Give the measured composite z-score of `O=C1N(Cc2ccccc2)c2ccccc2C[C@]12N=C(c1ccc(OCCCO)cc1)O[C@@H]2c1ccccc1` .
Response: 1.03

Prompt: Give the measured composite z-score of CCCCCCCCCCC(O)C1C=CC2C(=O)N(c3ccccc3)C(=O)C2N1Nc1ccc(C#N)cc1 (stereo not given) .
Response: 1.18

Prompt: Give the measured composite z-score of `COC(=O)[C@@]1(Cc2ccc(F)cc2)[C@H]2c3cc(C(=O)N(C)C)n(Cc4ccc(OC(F)(F)F)cc4)c3C[C@H]2CN1C(=O)c1ccccc1` .
Response: 0.626

Prompt: Give the measured composite z-score of `COCCCNC(=O)[C@@H]1c2ccccc2C(=O)N(C(C)C)[C@H]1c1ccc(CO)cc1` .
Response: -0.264

Prompt: Give the measured composite z-score of `COc1ccc([Si](C)(C)[C@@H]2[C@@H](CCO)O[C@]3(C(=O)N(Cc4ccccc4)c4ccc(NC(=O)[C@H](C)O)cc43)[C@H]2C)cc1` .
Response: 1.21

Prompt: Give the measured composite z-score of O=C1OCCC=C[C@H]2OC34C=CCN(Cn5nnc6ccccc65)C(=O)[C@H]3N(CCCO)C(=O)[C@@H]4C12 (stereo not given in full) .
Response: -1.46

Prompt: Give the measured composite z-score of `COCCCNC(=O)[C@@]1(Sc2ccc(C)cc2)CC(=O)N(C2Cc3ccccc3C2)[C@@H]1c1ccc(CO)cc1` .
Response: 0.336

Prompt: Give the measured composite z-score of `C#CCN([C@@H](Cc1ccccc1)C(=O)OC)[C@@H](/C=C/C1CC1)[C@H](O)Cc1ccccc1` .
Response: -0.515

Prompt: Give the measured composite z-score of `COc1ccc(CCNC(=O)[C@@H]2c3ccccc3C(=O)N(C3CCCCC3)[C@H]2c2ccc(CO)cc2)cc1` .
Response: 0.883

---

composite z-score values for the compounds below.
experimental.system: Pro-neuregulin-1, membrane-bound isoform (Homo sapiens) (UniProt Q02297)
Sequence (Q02297 whole entry, looked up, canonical isoform): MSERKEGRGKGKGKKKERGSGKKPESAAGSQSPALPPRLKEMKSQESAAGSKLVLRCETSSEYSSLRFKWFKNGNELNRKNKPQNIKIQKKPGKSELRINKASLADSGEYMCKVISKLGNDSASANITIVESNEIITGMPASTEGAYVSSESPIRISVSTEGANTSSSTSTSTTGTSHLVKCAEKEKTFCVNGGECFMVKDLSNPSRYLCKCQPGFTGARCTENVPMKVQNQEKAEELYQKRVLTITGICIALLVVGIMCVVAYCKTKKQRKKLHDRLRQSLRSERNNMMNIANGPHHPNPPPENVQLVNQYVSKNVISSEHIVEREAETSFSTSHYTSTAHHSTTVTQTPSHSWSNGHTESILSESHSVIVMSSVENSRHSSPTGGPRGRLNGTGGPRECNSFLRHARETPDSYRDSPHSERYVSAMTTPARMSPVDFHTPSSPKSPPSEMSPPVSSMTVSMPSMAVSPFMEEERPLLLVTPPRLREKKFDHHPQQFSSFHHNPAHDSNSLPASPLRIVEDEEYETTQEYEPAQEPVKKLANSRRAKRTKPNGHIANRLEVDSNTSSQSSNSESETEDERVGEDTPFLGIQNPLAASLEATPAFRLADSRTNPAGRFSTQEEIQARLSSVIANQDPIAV
test.summary: small molecules binding neuregulin-1 protein – biochemical, small-molecule microarray, fluorescence 635/667, psychiatric disease protein project, primary screen (AID 1075);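 also: score combines 667 nm spot fluorescence with signal to noise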
settings: NRG1 binding, 635 nm fluorescence, higher = more signal
Keep the answer to the number alone.

[[record]]
compound = "CC(C)C(O)C1C=CC2C(=O)N(c3ccccc3)C(=O)C2N1Nc1ccccc1 (configuration not stated)"
readout_name = "composite z-score"
readout_number = 1.24

[[record]]
compound = "O[C@@H](Cc1ccccc1)[C@@H](/C=C/C1CC1)N(CC#Cc1ccccc1)Cc1ccccc1Br"
readout_name = "composite z-score"
readout_number = -0.0422

[[record]]
compound = "CCC1=C2CN(Cc3ccccc3)[C@@H](C(=O)Cc3ccccc3)C2C=CCC1 (some centres not stated)"
readout_name = "composite z-score"
readout_number = 0.271

[[record]]
compound = "COc1ccc([Si](C)(C)[C@@H]2[C@@H](CCO)O[C@]3(C(=O)N(Cc4ccccc4)c4ccc(NC(=O)[C@H](C)O)cc43)[C@H]2C)cc1"
readout_name = "composite z-score"
readout_number = 1.13

[[record]]
compound = "COCCCNC(=O)[C@@]1(Sc2ccc(C)cc2)CC(=O)N(C2Cc3ccccc3C2)[C@@H]1c1ccc(CO)cc1"
readout_name = "composite z-score"
readout_number = 1.47

[[record]]
compound = "COc1cccc(C)c1NC(=O)O[C@H]1[C@H](OC(=O)Nc2ccc3c(c2)OCO3)[C@@H](OC(=O)Nc2ccc3c(c2)OCO3)[C@@H](OC)O[C@@H]1CO"
readout_name = "composite z-score"
readout_number = -0.0548

[[record]]
compound = "COc1ccc([Si](C)(C)[C@@H]2[C@@H](CCO)O[C@]3(C(=O)N(Cc4ccccc4)c4ccc(N5C(=O)c6cccc7cccc5c67)cc43)[C@H]2C)cc1"
readout_name = "composite z-score"
readout_number = 0.367

[[record]]
compound = "CCCC#C[Si](O[C@H](CC)c1cn([C@H](C)c2ccccc2)nn1)(C(C)C)C(C)C"
readout_name = "composite z-score"
readout_number = 0.0607

[[record]]
compound = "COc1cc2c(cc1O)C(C1CC1)N(C)CC2 (configuration not stated)"
readout_name = "composite z-score"
readout_number = 0.63

[[record]]
compound = "COCCOC(=O)N1C(=O)[C@@]2(c3cc(C#CCCO)ccc31)[C@H](C(=O)Nc1nc3ccccc3s1)[C@H]1C(=O)O[C@H](c3ccccc3)[C@H](c3ccccc3)N1[C@@H]2c1ccc(O)cc1"
readout_name = "composite z-score"
readout_number = 1.07


As a next step, examine the compound that follows.
Prompt: For Pro-neuregulin-1, membrane-bound isoform (Homo sapiens) (UniProt Q02297), provide composite z-score of `COc1ccc([C@H]2OC[C@@H]3C[C@H](Cc4ccccc4)C(=O)N32)cc1` please.
Response: -0.465
